System: NCI-H727
test summary: relative viability (nuclei count vs DMSO), 5 days (fraction); higher = more cells survive
measurement conditions: first compound 0.8 µM
Listed molecules paired with reported relative viability
Enter the number alone.

Reference set, count: 2
molecule	assay target	assay metric	val
COc1nc(C)cnc1NS(=O)(=O)c1cccnc1-c1ccc(-c2nnco2)cc1 [Zibotentan] + Cc1cc(Nc2cc(N3CCN(C)CC3)nc(Sc3ccc(NC(=O)C4CC4)cc3)n2)n[nH]1 [Tozasertib] (partner 0.1 µM)	NCI-H727	relative viability	0.629
COc1nc(C)cnc1NS(=O)(=O)c1cccnc1-c1ccc(-c2nnco2)cc1 [Zibotentan] + CC1(C)CCC(c2ccc(Cl)cc2)=C(CN2CCN(c3ccc(C(=O)NS(=O)(=O)c4ccc(N[C@H](CCN5CCOCC5)CSc5ccccc5)c(S(=O)(=O)C(F)(F)F)c4)cc3)CC2)C1 [Navitoclax] (partner 0.5 µM)	NCI-H727	relative viability	0.48

The molecule O=c1cc(-c2cccc3c2Sc2ccccc2S3)oc(N2CCOCC2)c1 + COc1cc2c(Oc3ccc(NC(=O)C4(C(=O)Nc5ccc(F)cc5)CC4)cc3F)ccnc2cc1OCCCN1CCOCC1 [Foretinib] (partner 0.25 µM) on NCI-H727: relative viability was 0.904

The molecule COc1nc(C)cnc1NS(=O)(=O)c1cccnc1-c1ccc(-c2nnco2)cc1 [Zibotentan] + CC(=O)Nc1cccc(-n2c(=O)n(C3CC3)c(=O)c3c(Nc4ccc(I)cc4F)n(C)c(=O)c(C)c32)c1 [Trametinib] (partner 0.02 µM) on NCI-H727: relative viability was 0.441

The molecule COc1nc(C)cnc1NS(=O)(=O)c1cccnc1-c1ccc(-c2nnco2)cc1 [Zibotentan] + COc1cccc2cc(-c3nc([C@H]4CC[C@H](C(=O)O)CC4)n4ncnc(N)c34)[nH]c12 [OSI-027] (partner 0.5 µM) on NCI-H727: relative viability was 0.601

The molecule COc1nc(C)cnc1NS(=O)(=O)c1cccnc1-c1ccc(-c2nnco2)cc1 [Zibotentan] + CC(C)C[C@H](NC(=O)[C@H](Cc1ccccc1)NC(=O)c1cnccn1)B(O)O [Bortezomib] (partner 0.002 µM) on NCI-H727: relative viability was 0.966

The molecule O=c1cc(-c2cccc3c2Sc2ccccc2S3)oc(N2CCOCC2)c1 + N=C(N)NC(=N)NCCc1ccccc1 [Phenformin] (partner 250 µM) on NCI-H727: relative viability was 0.411

====

Test system: EMC-BAC-2
test summary: relative viability (nuclei count vs DMSO), 5 days (fraction); higher = more cells survive
measurement conditions: first compound 0.2 µM
Listed compounds paired with reported relative viability
Enter the number alone.

Reference set, count: 3
compound	relative viability
COCC1(CO)C(=O)C2CCN1CC2 (centres undefined) [PRIMA-1MET] + O=C(c1cc(Cc2n[nH]c(=O)c3ccccc23)ccc1F)N1CCN(C(=O)C2CC2)CC1 [Olaparib] (partner 8 µM)	0.624
COCC1(CO)C(=O)C2CCN1CC2 (centres undefined) [PRIMA-1MET] + CC1(C)CCC(c2ccc(Cl)cc2)=C(CN2CCN(c3ccc(C(=O)NS(=O)(=O)c4ccc(N[C@H](CCN5CCOCC5)CSc5ccccc5)c(S(=O)(=O)C(F)(F)F)c4)cc3)CC2)C1 [Navitoclax] (partner 0.5 µM)	1.18
COCC1(CO)C(=O)C2CCN1CC2 (centres undefined) [PRIMA-1MET] + COc1cccc2cc(-c3nc([C@H]4CC[C@H](C(=O)O)CC4)n4ncnc(N)c34)[nH]c12 [OSI-027] (partner 0.5 µM)	0.509

Could you now look at the following compound, please?
Reported relative viability of COCC1(CO)C(=O)C2CCN1CC2 (centres undefined) [PRIMA-1MET] + CS(=O)(=O)N1CCN(Cc2cc3nc(-c4cccc5[nH]ncc45)nc(N4CCOCC4)c3s2)CC1 [Pictilisib] (partner 1 µM) : 0.608

====

Listed compounds paired with reported relative viability
Test system: PC-3 [JPC-3]
test summary: relative viability (nuclei count vs DMSO), 5 days (fraction); higher = more cells survive
measurement conditions: first compound 6.325 µM
Enter the number alone.

Reference set, count: 3
compound	relative viability
COCC1(CO)C(=O)C2CCN1CC2 (centres undefined) [PRIMA-1MET] + COc1cccc2cc(-c3nc([C@H]4CC[C@H](C(=O)O)CC4)n4ncnc(N)c34)[nH]c12 [OSI-027] (partner 0.5 µM)	0.77
COCC1(CO)C(=O)C2CCN1CC2 (centres undefined) [PRIMA-1MET] + NC(=O)Nc1cc(-c2cccc(F)c2)sc1C(=O)N[C@H]1CCCNC1 [AZD7762] (partner 0.2 µM)	0.904
COCC1(CO)C(=O)C2CCN1CC2 (centres undefined) [PRIMA-1MET] + CS(=O)(=O)N1CCN(Cc2cc3nc(-c4cccc5[nH]ncc45)nc(N4CCOCC4)c3s2)CC1 [Pictilisib] (partner 1 µM)	0.777

Could you now look at the following compound, please?
Reported relative viability of COCC1(CO)C(=O)C2CCN1CC2 (centres undefined) [PRIMA-1MET] + CC(=O)c1c(C)c2cnc(Nc3ccc(N4CCNCC4)cn3)nc2n(C2CCCC2)c1=O [Palbociclib] (partner 0.5 µM) : 0.574

====

Listed molecules paired with reported relative viability
Tested on: NCI-H2023
test summary: relative viability (nuclei count vs DMSO), 5 days (fraction); higher = more cells survive
measurement conditions: first compound 0.3162 µM
Enter the number alone.

molecule	relative viability
CCN(CC)CCCCNc1ncc2cc(-c3cc(OC)cc(OC)c3)c(NC(=O)NC(C)(C)C)nc2n1 + CC1(C)CCC(c2ccc(Cl)cc2)=C(CN2CCN(c3ccc(C(=O)NS(=O)(=O)c4ccc(N[C@H](CCN5CCOCC5)CSc5ccccc5)c(S(=O)(=O)C(F)(F)F)c4)cc3)CC2)C1 [Navitoclax] (partner 0.5 µM)	1.04
O=c1cc(N2CCOCC2)oc2c(-c3cccc4c3sc3ccccc34)cccc12 + C[C@@H](Oc1cc(-c2cnn(C3CCNCC3)c2)cnc1N)c1c(Cl)ccc(F)c1Cl [Crizotinib] (partner 1 µM)	0.616
CCN(CC)CCCCNc1ncc2cc(-c3cc(OC)cc(OC)c3)c(NC(=O)NC(C)(C)C)nc2n1 + CC(=O)c1c(C)c2cnc(Nc3ccc(N4CCNCC4)cn3)nc2n(C2CCCC2)c1=O [Palbociclib] (partner 0.5 µM)	0.347
CCN(CC)CCCCNc1ncc2cc(-c3cc(OC)cc(OC)c3)c(NC(=O)NC(C)(C)C)nc2n1 + O=C(c1cc(Cc2n[nH]c(=O)c3ccccc23)ccc1F)N1CCN(C(=O)C2CC2)CC1 [Olaparib] (partner 8 µM)	0.55
CCN(CC)CCCCNc1ncc2cc(-c3cc(OC)cc(OC)c3)c(NC(=O)NC(C)(C)C)nc2n1 + CC(=O)Nc1cccc(-n2c(=O)n(C3CC3)c(=O)c3c(Nc4ccc(I)cc4F)n(C)c(=O)c(C)c32)c1 [Trametinib] (partner 0.02 µM)	0.629

Reported relative viability of CCN(CC)CCCCNc1ncc2cc(-c3cc(OC)cc(OC)c3)c(NC(=O)NC(C)(C)C)nc2n1 + Cc1cc(Nc2cc(N3CCN(C)CC3)nc(Sc3ccc(NC(=O)C4CC4)cc3)n2)n[nH]1 [Tozasertib] (partner 0.1 µM) : 0.41

Reported relative viability of CCN(CC)CCCCNc1ncc2cc(-c3cc(OC)cc(OC)c3)c(NC(=O)NC(C)(C)C)nc2n1 + C[C@@H](Oc1cc(-c2cnn(C3CCNCC3)c2)cnc1N)c1c(Cl)ccc(F)c1Cl [Crizotinib] (partner 1 µM) : 0.725

Reported relative viability of O=c1cc(N2CCOCC2)oc2c(-c3cccc4c3sc3ccccc34)cccc12 + Cc1nc(NC(=O)N2CCC[C@H]2C(N)=O)sc1-c1ccnc(C(C)(C)C(F)(F)F)c1 [Alpelisib] (partner 2 µM) : 0.532

Reported relative viability of O=c1cc(N2CCOCC2)oc2c(-c3cccc4c3sc3ccccc34)cccc12 + O=C(c1cc(Cc2n[nH]c(=O)c3ccccc23)ccc1F)N1CCN(C(=O)C2CC2)CC1 [Olaparib] (partner 8 µM) : 0.513

====

Tested on: NCI-H647
test summary: relative viability (nuclei count vs DMSO), 5 days (fraction); higher = more cells survive
measurement conditions: first compound 0.08 µM
assay metric: relative viability

compound	assay target	relative viability
COc1nc(C)cnc1NS(=O)(=O)c1cccnc1-c1ccc(-c2nnco2)cc1 [Zibotentan] + COc1cc2c(Oc3ccc(NC(=O)C4(C(=O)Nc5ccc(F)cc5)CC4)cc3F)ccnc2cc1OCCCN1CCOCC1 [Foretinib] (partner 0.25 µM)	NCI-H647	1.13
COc1nc(C)cnc1NS(=O)(=O)c1cccnc1-c1ccc(-c2nnco2)cc1 [Zibotentan] + O=C(c1cc(Cc2n[nH]c(=O)c3ccccc23)ccc1F)N1CCN(C(=O)C2CC2)CC1 [Olaparib] (partner 8 µM)	NCI-H647	0.592
COc1nc(C)cnc1NS(=O)(=O)c1cccnc1-c1ccc(-c2nnco2)cc1 [Zibotentan] + NC(=O)Nc1cc(-c2cccc(F)c2)sc1C(=O)N[C@H]1CCCNC1 [AZD7762] (partner 0.2 µM)	NCI-H647	0.353

Could you now look at the following compound, please?
Reported relative viability of COc1nc(C)cnc1NS(=O)(=O)c1cccnc1-c1ccc(-c2nnco2)cc1 [Zibotentan] + CC(=O)Nc1cccc(-n2c(=O)n(C3CC3)c(=O)c3c(Nc4ccc(I)cc4F)n(C)c(=O)c(C)c32)c1 [Trametinib] (partner 0.02 µM) : 0.452
